target: UniProt:O14842; test: Agonist activity at human GPR40 expressed in CHO cells assessed as calcium flux by FLIPR assay
Sequence (O14842 whole entry): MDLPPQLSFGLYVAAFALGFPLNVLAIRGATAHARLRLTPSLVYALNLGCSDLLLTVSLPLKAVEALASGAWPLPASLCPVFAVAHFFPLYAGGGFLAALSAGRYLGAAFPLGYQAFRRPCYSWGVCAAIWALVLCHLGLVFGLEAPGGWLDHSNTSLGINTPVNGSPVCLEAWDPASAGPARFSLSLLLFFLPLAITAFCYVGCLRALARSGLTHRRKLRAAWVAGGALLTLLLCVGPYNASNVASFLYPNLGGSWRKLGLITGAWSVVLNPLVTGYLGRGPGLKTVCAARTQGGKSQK
pEC50: −log10 of the molar value.
Criterion: pEC50 meeting or surpassing 7. Met: T. Not met: F.

INSERT INTO assay_data (compound, tested_on, assigned_category) VALUES
  ('CCO[C@@H](CC(=O)O)c1ccc(O[C@H]2CCc3c2cccc3C(F)(F)F)cc1', 'UniProt:O14842', 'T'),
  ('CCO[C@@H](CC(=O)O)c1ccc(O[C@@H]2CCc3ccccc32)cc1', 'UniProt:O14842', 'T'),
  ('CCO[C@H](CC(=O)O)c1ccc(OCc2ccc(Cl)c(Cl)c2)cc1', 'UniProt:O14842', 'F'),
  ('CCO[C@@H](CC(=O)O)c1ccc(O[C@@H]2CCc3c2cccc3C(F)(F)F)cc1', 'UniProt:O14842', 'T'),
  ('CCO[C@@H](CC(=O)O)c1ccc(OCc2ccc(C(F)(F)F)cc2)cc1', 'UniProt:O14842', 'T'),
  ('CCO[C@@H](CC(=O)O)c1ccc(OCc2ccc(Cl)c(Cl)c2)cc1', 'UniProt:O14842', 'T'),
  ('CCO[C@H](CC(=O)O)c1ccc(O[C@@H]2CCc3c2cccc3C(F)(F)F)cc1', 'UniProt:O14842', 'F'),
  ('CCOC(CC(=O)O)c1ccc(OCc2ccc(Cl)c(Cl)c2)cc1 (racemic)', 'UniProt:O14842', 'T'),
  ('CCO[C@@H](CC(=O)O)c1ccc(O[C@@H]2CCc3c(C)cccc32)cc1', 'UniProt:O14842', 'T'),
  ('CCO[C@@H](CC(=O)O)c1ccc(O[C@@H]2CCc3c(Cl)cccc32)cc1', 'UniProt:O14842', 'T'),
  ('CCO[C@H](CC(=O)O)c1ccc(O[C@H]2CCc3c2cccc3C(F)(F)F)cc1', 'UniProt:O14842', 'F');

* * *

target: UniProtKB O14842; assay: Agonist activity at human GPR40 expressed in CHO cells assessed as calcium flux by FLIPR assay
readout: EC50 (nM)

INSERT INTO results (smiles, measured_number) VALUES
  ('CCO[C@@H](CC(=O)O)c1ccc(O[C@H]2CCc3ccccc32)cc1', 69),
  ('CCO[C@@H](CC(=O)O)c1ccc(O[C@@H]2CCCc3ccccc32)cc1', 62),
  ('CCOc1cccc2c1CC[C@H]2Oc1ccc([C@H](CC(=O)O)OCC)cc1', 63),
  ('CCO[C@@H](CC(=O)O)c1ccc(OC2Cc3ccccc3C2)cc1', 83);
